# Test system: SW-620
# procedure summary: NCI tumour cell line growth inhibition, 48 h
The source made the active and inactive calls. Cut-off read from the data, not from the text of the source: active = GI50 up to about 1.1 µM and inactive = higher.
Lab note: assign the record to one of 1.0 (active), 0.0 (inactive)

Reference set (4 entries):
| smiles text | class assignment |
| --- | --- |
| CC(C)(c1ccc(C=O)o1)c1ccc(C(C)(C)c2ccc(C=O)o2)o1 | 0.0 |
| Cc1ccc(S(=O)(=O)SCc2ccccc2CSS(=O)(=O)c2ccc(C)cc2)cc1 | 0.0 |
| CC(=O)C(=[N+]=[N-])C(=O)N(C)CCC#N | 0.0 |
| O=C1C=CC(=O)c2c1c1c(c3c2C2c4ccccc4C3c3ccccc32)C2c3ccccc3C1c1ccccc12 | 1.0 |

Could you now look at the following compound, please?
Fill in: this test's call for `COc1ccc2c(c1O)-c1cc(O)cc3c1[C@@H](C2)N(C)CC3` is ___
0.0

----------
# System: UACC-257
# procedure summary: NCI tumour cell line growth inhibition, 48 h
Calls of active or inactive are those of the source. Rule as the data show it: active = GI50 up to about 1.1 µM and inactive = higher.
Lab note: assign the record to one of 1.0 (active), 0.0 (inactive)

Reference set (5 entries):
| compound | class assignment |
| --- | --- |
| CCCC(=O)Nc1cc(/C=C/C(=O)N2CC(CCl)c3c2cc(OC(C)=O)c2[nH]cc(C)c32)n(C)c1 (stereo unspecified) | 1.0 |
| CC(=O)NC1CCC(NC(=O)OC(C)(C)C)C(NC(=O)OC(C)(C)C)C1 (stereo unspecified) | 0.0 |
| CN(Cc1ccccc1)Cn1ccnc1 | 0.0 |
| c1csc(-c2cscc2-c2ccsc2)c1 | 0.0 |
| O=C(O)CNC(=O)CO/N=C1/C(=C2/C(=O)Nc3ccccc32)Nc2ccccc21 | 0.0 |

Fill in: this test's call for CC(=O)NC1(C)C(C)C2CC1C(C)C2(C)C (stereo unspecified) is ___
0.0

Likewise for `N#C/C(=C(\O)C(=O)O)c1ccc(-c2cccc3ccccc23)cc1` ?
0.0

Likewise for `[O-]c1c2cc(-[n+]3c(-c4ccccc4)cc(-c4ccccc4)cc3-c3ccccc3)cc1CO[C@@H](c1ccccc1)[C@H](c1ccccc1)OCc1cccc(n1)CO[C@@H](c1ccccc1)[C@H](c1ccccc1)OC2` ?
1.0

Likewise for `CCOC(=O)c1c(NC(=O)c2ccccc2)c(C#N)c2n1CCCCC2` ?
0.0

Likewise for `C[C@H](C(=O)C12CC3CC(CC(C3)C1)C2)[C@H](O)c1ccccc1` ?
0.0

Likewise for `Cn1c(N)c(/N=N/c2ccc(S(N)(=O)=O)cc2)c(=O)n(C)c1=O` ?
0.0

Likewise for COC(=O)c1c(C)cccc1C1CN=NC12Cc1cc(C)cc(C)c1C2=O (stereo unspecified) ?
0.0

Likewise for `O=C(Nn1cnn2c(=O)c3ccccc3nc2c1=O)c1ccccc1` ?
0.0

----------
# Test system: SF-295
# procedure summary: NCI tumour cell line growth inhibition, 48 h
Active and inactive are the calls of the source. Cut-off read from the data, not from the text of the source: active = GI50 up to about 1.1 µM and inactive = higher.
measured property: GI50

| molecule | GI50 |
| --- | --- |
| Cc1cn(C2CC(O)C(CO)O2)c(=O)n2nnnc12 (stereo not given) | > 100 µM (inactive) |
| O=C(CCc1cc(O)cc(O)c1)NCCCNC(=O)CCc1cc(O)cc(O)c1 | > 100 µM (inactive) |
| COC(=O)/C=c1/c2ccccc2n2nc3ccccc3c12 | > 100 µM (inactive) |
| CC(=O)SCCC(NC(=S)Nc1ccccc1)P(=O)(Oc1ccccc1)Oc1ccccc1 (stereo not given) | > 100 µM (inactive) |
| CC1C2CCC3C(O)C2(CC(O)C2(O)C1CC(O)C2(C)C)CC3(C)O (stereo not given) | > 100 µM (inactive) |

Hey, can you go through the list below and give me GI50 for every item?
1. CC(C)CC(NC(O)[BH2-][N+](C)(C)C)C(=O)NC(Cc1ccccc1)C(=O)N[C@H]1c2ccsc2/C(=N/O)[C@H]1O (stereo not given in full)
2. Cc1cc(Cc2cc(C)cc(C(C)(C)C)c2O)c(O)c(Cc2cc(C)cc(C(C)(C)C)c2O)c1
3. CC(=O)OCC1OC(n2cc(F)c(=O)[nH]c2=O)C(NC(=O)N(CCCl)N=O)C(OC(C)=O)C1OC(C)=O (stereo not given)
4. Cc1cnc2sn(-c3ccc(Br)cc3)c(=O)c2c1
5. c1ccc2c(OCC3CO3)ccc(OCC3CO3)c2c1 (stereo not given)

> 100 µM (inactive)
3.18 µM (inactive)
43.1 µM (inactive)
26.5 µM (inactive)
2.86 µM (inactive)
